Record: IC50 reported on rat mGluR5 (Rattus norvegicus (Rat), UniProt P31424).
Sequence (P31424 21-1203): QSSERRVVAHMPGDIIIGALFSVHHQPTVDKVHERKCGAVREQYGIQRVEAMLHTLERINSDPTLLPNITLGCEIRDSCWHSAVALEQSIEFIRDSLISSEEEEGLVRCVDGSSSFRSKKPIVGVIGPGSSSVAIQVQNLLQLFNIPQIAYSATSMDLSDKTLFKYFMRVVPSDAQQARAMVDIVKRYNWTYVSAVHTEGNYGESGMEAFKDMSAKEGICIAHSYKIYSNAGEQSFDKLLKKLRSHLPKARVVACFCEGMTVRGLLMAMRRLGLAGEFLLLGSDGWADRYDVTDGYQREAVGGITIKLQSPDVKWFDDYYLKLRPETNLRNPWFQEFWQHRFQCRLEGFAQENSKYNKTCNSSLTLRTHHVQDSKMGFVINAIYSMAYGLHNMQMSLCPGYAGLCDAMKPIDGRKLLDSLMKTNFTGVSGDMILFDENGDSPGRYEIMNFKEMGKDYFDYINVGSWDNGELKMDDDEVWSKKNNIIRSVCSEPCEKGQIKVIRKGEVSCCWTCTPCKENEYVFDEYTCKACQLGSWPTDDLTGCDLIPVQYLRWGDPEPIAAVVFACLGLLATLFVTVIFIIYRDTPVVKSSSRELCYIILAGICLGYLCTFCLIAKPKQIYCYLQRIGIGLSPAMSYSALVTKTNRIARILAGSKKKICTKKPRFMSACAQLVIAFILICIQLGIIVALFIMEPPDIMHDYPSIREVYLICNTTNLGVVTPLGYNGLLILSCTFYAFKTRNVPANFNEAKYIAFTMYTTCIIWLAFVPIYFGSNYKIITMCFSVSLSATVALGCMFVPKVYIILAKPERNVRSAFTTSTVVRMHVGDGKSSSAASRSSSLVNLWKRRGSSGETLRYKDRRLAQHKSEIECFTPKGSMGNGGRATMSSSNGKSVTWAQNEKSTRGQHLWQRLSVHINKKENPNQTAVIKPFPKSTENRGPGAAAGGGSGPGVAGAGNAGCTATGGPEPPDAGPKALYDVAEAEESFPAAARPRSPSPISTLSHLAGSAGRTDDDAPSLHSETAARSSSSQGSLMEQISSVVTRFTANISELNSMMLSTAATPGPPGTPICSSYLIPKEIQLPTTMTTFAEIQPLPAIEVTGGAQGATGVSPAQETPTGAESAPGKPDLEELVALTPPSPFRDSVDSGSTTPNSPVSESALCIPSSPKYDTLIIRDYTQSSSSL
Answers are plain numbers, in µM.

For orientation, consider the following solved cases.
Query Smiles: Cc1csc(NC(=O)c2cc(F)cc(N(C)c3cccnc3)c2)n1
Test Readout: IC50
Experimental Value: 0.176
--
Query Smiles: O=C(Nc1nc(C2CC2)cs1)c1cc(F)cc(Oc2cncnc2)c1
Test Readout: IC50
Experimental Value: 0.345
--
Query Smiles: CN(c1cccnc1)c1cccc(C(=O)Nc2nccs2)c1
Test Readout: IC50
Experimental Value: 3.56
--
Query Smiles: Cc1nc(NC(=O)c2cc(F)cc(Oc3cncnc3)c2)ccc1F
Test Readout: IC50
Experimental Value: 0.36

Okay, now this compound:
Input line: What reported IC50 corresponds to Cc1cc(NC(=O)c2cc(Cl)cc(Oc3cncnc3)c2)ncc1F on rat mGluR5 (Rattus norvegicus (Rat), UniProt P31424)?
Output line: 2.78

---

- System Tested: rat mGluR5 (Rattus norvegicus (Rat))
Test Readout: IC50 (nM)
One number for each entry, in nM.

Illustrative cases are given below, each with its answer.
Query Smiles: Cc1csc(NC(=O)c2cccc(Oc3cccnc3)c2)n1
Experimental Value: 296

Query Smiles: CN(c1cccnc1)c1cc(Cl)cc(C(=O)Nc2nccs2)c1
Experimental Value: 648

Query Smiles: Cc1nc(NC(=O)c2cc(Cl)cc(Oc3cncnc3)c2)ccc1F
Experimental Value: 54

Query Smiles: Cc1nc(NC(=O)c2cc(F)cc(Oc3cncnc3)c2)sc1F
Experimental Value: 52

As a next step, examine the compound that follows.
Input line: Dear colleague, I am looking for the recorded IC50 of the following compound: O=C(Nc1ccc(Cl)cn1)c1cc(Cl)cc(Oc2cncnc2)c1
Output line: 87

---

Hi! I'm sharing some IC50 results obtained with rat mGluR5 (Rattus norvegicus (Rat), UniProt P31424).

Worked cases, IC50 given:
Query Smiles: O=C(Nc1ccncn1)c1cccc(Oc2cccnc2)c1
Test Readout: IC50
Experimental Value: > 10 µM
--
Query Smiles: O=C(Nc1nc(C(F)(F)F)cs1)c1cccc(Oc2cccnc2)c1
Test Readout: IC50
Experimental Value: > 30 µM
--
Query Smiles: Cc1nc(NC(=O)c2cc(F)cc(Oc3cncnc3)c2)sc1C(C)(C)C
Test Readout: IC50
Experimental Value: > 10 µM

Consider the following items and state reported IC50 for each.
1. Cc1cncc(NC(=O)c2cc(F)cc(N(C)c3cncnc3)c2)c1
2. O=C(Nc1ncccc1F)c1cc(Cl)cc(Oc2cncnc2)c1
3. Cc1nsc(NC(=O)c2cccc(Oc3cccnc3)c2)n1

Output line:
["> 10 µM", "> 10 µM", "> 30 µM"]
